Target: T1, human CD1a expressed on cells (human, UniProt P06126 17-327; P61769 21-119)
T1 construct: also called HEK - CD1a; C1R - CD1a
Test: flow cytometry, MOLT4 cells, 10 µg/ml antibody
experimental_readout: Fluorescence Intensity Geomean (normalized to background) (fold over background)

INSERT INTO measurements (binder, recorded_result) VALUES
  ('110 (VR12112) (antibody, V domains shown, also called OX110; antibody 110) VH: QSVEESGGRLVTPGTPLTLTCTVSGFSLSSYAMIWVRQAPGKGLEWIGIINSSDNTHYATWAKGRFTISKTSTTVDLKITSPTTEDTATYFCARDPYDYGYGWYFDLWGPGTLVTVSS VL: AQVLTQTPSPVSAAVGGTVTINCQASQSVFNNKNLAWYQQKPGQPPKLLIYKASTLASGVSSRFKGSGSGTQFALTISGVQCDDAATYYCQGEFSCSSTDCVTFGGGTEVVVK', 14.7),
  ('77A (VR11851) (antibody, V domains shown, also called OX77a; antibody 77a) VH: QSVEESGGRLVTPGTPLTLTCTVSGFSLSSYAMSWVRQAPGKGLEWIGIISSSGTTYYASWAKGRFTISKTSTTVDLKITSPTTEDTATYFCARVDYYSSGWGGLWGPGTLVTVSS VL: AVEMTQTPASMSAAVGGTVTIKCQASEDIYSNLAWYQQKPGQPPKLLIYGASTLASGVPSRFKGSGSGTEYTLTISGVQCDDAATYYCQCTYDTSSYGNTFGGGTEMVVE', 4.1),
  ('16 (VR11834) (antibody, V domains shown, also called OX16; antibody 16) VH: EVQLVESGGGLVKPGGSLKLSCAASGFTFSNYAMSWVRQTPEKRLEWVAAINSNGGSAYYPDTVKDRFTISRDNAKNTLYLQMSSLRSEDTALYYCARRFYYDYGWFAYWGQGTLVTVSS VL: DIVLTQSPASLSASVGETVTITCRASENIDSYLAWYQQKQGKSPQLLVYAATLLADGVPSRFSGSGSGTQYSLKINSLQSEDVARYYCQHYYSSPWTFGGGTKLEIK', 7.5),
  ('116 (VR12117) (antibody, V domains shown, also called OX116) VH: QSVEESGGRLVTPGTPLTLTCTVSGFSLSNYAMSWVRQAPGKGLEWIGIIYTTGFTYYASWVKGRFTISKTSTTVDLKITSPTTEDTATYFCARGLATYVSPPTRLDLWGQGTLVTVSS VL: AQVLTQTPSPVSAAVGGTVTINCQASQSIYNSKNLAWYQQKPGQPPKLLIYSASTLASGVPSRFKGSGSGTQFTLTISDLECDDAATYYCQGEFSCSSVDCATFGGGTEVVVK', 11.7),
  ('111 (VR12113) (antibody, V domains shown, also called OX111) VH: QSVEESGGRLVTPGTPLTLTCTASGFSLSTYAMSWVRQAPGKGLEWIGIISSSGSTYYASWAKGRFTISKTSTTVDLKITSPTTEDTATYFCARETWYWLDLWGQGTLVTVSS VL: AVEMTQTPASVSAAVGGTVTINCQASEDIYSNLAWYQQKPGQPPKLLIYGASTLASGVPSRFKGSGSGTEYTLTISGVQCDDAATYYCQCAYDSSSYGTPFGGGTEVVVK', 9.3);

// provenance: patent US20250289893A1
